- tested.target: P-selectin/PSGL-1 interaction (Homo sapiens)
- Construct: comprised of the lectin and epidermal growth factor-like (EGF) domains expressed in CHO cells; made in house; host or cells: CHO cells (P-LE)
- Sequence (P16109 42-198): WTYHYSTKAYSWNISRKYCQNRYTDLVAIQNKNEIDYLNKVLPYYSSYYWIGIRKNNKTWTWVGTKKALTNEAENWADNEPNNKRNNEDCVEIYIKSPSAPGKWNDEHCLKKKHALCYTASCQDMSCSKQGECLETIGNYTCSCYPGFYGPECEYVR
- method.notes: Biacore P-selectin/PSGL-1 inhibition assay (surface plasmon resonance)
- Assay type: binding
- condition.info: 250 uM test compound; 500 nM P.LE; immobilized biotinylated PSGL-1 19ek; 10% DMSO; pH 7.4; 25° C.
measurement.name: inhibition at 250 µM (%)

Sample records with inhibition at 250 µM:
> print(dat)
                                   molecule  uom  numeric.result
1  O=C(O)c1c(O)c(C2Cc3ccccc3C2)nc2c(C(F)(F)F)cccc12    %              35
2  CC(C)c1cccc2c(C(=O)O)c(O)c(C3Cc4ccccc4C3)nc12    %              48
3  Cc1ccc2c(C(=O)O)c(O)c(C3Cc4ccccc43)nc2c1C (centres unmarked)    %              17

[a] Cc1ccc2c(C(=O)O)c(O)c(C3Cc4ccccc4C3)nc2c1C
[b] O=C(O)c1c(O)c(C2Cc3ccccc32)nc2c(C(F)(F)F)cccc12 (centres unmarked)
Task: Given a and given b , which shows the smaller recorded inhibition at 250 µM? Pick one; state its label.
Output: a
